Cited source: PubChem BioAssay AID463173

System: Wild type
Experiment: S. aureus survival, RN4220 and DeltatarO strains – OD600, teichoic acid synthesis inhibitors, primary screen (AID 463173)
Settings: S. aureus RN4220 wild type/DeltatarO growth, OD600, 18 h, screened at 18.75 µg/mL (by protocol)
Hit rate of the full screen: of about 52,000 compounds, about 1,700 (3.3%) were called active. Rule as the data show it: active = survival mostly below about 52% (no sharp cut-off); inactive = mostly above about 56%. This is one part of a sample in which actives are shown more often than they occur.
// allowed return values: active, inactive

Observe how each entry below is paired with its result.
structure_notation: CCOc1ccc(Cn2c(CNS(=O)(=O)c3ccc([N+](=O)[O-])cc3)nc3cccnc32)cc1
assigned_class: inactive
//
structure_notation: COc1ccc(Cn2c(CNS(=O)(=O)c3ccc(C)c(C)c3)nc3cccnc32)cc1
assigned_class: active
//
structure_notation: COc1cccc(/C=N/NC(=O)CSCc2ccccc2)c1O
assigned_class: inactive
//
structure_notation: CCc1ccc(Cn2c(CNS(=O)(=O)c3ccc([N+](=O)[O-])cc3)nc3cccnc32)cc1
assigned_class: active
//
structure_notation: CC(C)(C)c1ccc(S(=O)(=O)NCc2nc3cccnc3n2Cc2ccccc2Cl)cc1
assigned_class: active
//
structure_notation: CCc1ccc(Cn2c(CNS(=O)(=O)c3ccc(C)c(C)c3)nc3cccnc32)cc1
assigned_class: inactive

API: the following record is the query input.
### Prompt Check the results log: what was the call for "Cc1ccc(-n2c(=O)c3cccnc3n2CC(=O)Nc2ccc(Br)cc2)cc1C" ?
### Response inactive
